The reader will find reported IC50 values listed item by item below.
Molecular target: human recombinant LRRK2 protein (Homo sapiens, UniProt Q5S007)
Sequence (Q5S007 whole entry): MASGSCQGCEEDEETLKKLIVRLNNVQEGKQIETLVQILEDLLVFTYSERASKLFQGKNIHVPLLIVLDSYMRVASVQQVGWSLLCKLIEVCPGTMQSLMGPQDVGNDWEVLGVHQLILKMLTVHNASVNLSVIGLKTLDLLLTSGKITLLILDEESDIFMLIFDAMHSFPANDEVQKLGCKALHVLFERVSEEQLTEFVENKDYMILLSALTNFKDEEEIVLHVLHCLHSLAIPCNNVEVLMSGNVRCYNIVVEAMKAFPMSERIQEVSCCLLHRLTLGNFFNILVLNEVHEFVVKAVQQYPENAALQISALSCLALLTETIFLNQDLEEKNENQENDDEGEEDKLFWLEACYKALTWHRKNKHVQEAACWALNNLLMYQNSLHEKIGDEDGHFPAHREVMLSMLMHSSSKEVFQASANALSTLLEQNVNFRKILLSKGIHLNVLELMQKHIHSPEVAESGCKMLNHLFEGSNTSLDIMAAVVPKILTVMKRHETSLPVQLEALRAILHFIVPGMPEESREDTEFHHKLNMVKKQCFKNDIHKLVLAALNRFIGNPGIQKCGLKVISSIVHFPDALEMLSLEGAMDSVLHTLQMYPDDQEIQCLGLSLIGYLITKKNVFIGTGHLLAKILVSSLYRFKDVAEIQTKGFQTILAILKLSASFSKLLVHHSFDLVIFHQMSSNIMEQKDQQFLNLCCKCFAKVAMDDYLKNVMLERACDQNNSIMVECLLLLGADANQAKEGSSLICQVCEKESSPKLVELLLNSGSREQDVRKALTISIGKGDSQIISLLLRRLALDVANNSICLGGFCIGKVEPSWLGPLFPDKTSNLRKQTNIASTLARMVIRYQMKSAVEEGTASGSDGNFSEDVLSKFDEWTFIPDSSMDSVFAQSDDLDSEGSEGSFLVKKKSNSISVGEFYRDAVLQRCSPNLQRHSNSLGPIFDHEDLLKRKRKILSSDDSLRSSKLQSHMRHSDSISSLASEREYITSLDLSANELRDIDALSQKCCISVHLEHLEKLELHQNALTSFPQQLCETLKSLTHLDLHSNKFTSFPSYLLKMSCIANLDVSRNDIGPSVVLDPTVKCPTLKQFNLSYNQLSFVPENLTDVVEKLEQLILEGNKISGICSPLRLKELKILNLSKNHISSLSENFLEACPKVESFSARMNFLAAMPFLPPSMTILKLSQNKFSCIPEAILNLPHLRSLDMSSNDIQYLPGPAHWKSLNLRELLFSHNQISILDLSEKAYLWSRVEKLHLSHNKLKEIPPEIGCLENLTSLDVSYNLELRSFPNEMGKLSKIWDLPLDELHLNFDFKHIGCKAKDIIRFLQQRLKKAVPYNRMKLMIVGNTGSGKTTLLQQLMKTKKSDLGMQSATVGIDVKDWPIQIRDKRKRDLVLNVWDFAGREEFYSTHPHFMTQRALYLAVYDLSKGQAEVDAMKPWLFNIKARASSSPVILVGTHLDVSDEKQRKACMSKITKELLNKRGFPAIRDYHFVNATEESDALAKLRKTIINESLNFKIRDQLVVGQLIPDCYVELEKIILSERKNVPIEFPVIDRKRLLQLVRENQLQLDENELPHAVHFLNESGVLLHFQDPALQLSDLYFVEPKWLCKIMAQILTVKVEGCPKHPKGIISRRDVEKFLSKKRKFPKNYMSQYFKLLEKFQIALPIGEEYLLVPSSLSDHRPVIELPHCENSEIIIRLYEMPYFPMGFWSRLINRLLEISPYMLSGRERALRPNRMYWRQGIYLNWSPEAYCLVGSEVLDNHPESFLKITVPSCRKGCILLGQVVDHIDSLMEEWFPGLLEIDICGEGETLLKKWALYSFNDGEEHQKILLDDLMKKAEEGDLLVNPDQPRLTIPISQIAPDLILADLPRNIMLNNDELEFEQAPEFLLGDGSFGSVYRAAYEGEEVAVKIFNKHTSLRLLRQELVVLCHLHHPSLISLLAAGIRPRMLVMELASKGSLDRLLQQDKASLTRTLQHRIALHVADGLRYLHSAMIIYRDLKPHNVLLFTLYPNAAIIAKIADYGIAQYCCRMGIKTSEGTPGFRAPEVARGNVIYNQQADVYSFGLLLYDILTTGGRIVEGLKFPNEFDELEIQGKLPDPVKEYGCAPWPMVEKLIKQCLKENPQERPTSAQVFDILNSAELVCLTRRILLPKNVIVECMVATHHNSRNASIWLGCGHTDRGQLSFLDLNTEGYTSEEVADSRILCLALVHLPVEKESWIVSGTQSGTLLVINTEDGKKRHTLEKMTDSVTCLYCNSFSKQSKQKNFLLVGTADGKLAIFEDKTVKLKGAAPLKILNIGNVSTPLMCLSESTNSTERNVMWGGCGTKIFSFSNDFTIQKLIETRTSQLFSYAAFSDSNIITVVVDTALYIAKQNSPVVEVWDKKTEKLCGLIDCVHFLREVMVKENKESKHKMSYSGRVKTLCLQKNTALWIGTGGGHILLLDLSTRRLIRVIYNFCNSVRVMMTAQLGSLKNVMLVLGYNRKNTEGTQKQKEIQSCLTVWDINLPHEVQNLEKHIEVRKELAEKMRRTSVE
Test: LRRK2 kinase activity assay (ADP-Glo, LRRKtide peptide)
Conditions: human recombinant LRRK2 wt, LRRKtide peptide and ATP, 1 h at 37° C.

# annotated cases, reported IC50 shown
C1=C/COCCOc2ccc3[nH]nc(c3c2)-c2cnn(c2)CC/1 = < 10 nM
C[C@H]1COCCOCCn2ncc(n2)-c2n[nH]c3ccc(cc23)O1 = < 100 nM

Problem: Record request: IC50 value, item "CN1CCCOc2ccc3[nH]nc(c3c2)-c2cncc(c2)OCCC1=O"
Solution: < 1000 nM

Problem: Further, for "FC1(F)COCCCOc2ccc3[nH]nc(c3c2)-c2cnn(c2)C1" ?
Solution: < 10 nM

====

Target: human recombinant LRRK2 protein (Homo sapiens, UniProt Q5S007)
Assay: LRRK2 kinase activity assay (ADP-Glo, LRRKtide peptide)
Details: human recombinant LRRK2 wt, LRRKtide peptide and ATP, 1 h at 37° C.
measure: IC50

CC1Oc2cc(cc(N3CCOCC3)c2)-c2n[nH]c3ccc(cc23)OCCCNC1=O (centres unmarked) = < 10 nM

Problem: Record request: IC50 value, item "O=C1COc2cc(cc(C3CCOCC3)c2)-c2n[nH]c3ccc(cc23)OCCCN1"
Solution: < 10 nM

Problem: Further, for "[2H]C1([2H])OCCn2cc(cn2)-c2n[nH]c3ccc(cc23)OC[C@H](C)OC1([2H])[2H]" ?
Solution: < 10 nM

Problem: Further, for "C[C@@H]1COCCOCCn2ncc(n2)-c2n[nH]c3ccc(cc23)O1" ?
Solution: < 100 nM

Problem: Further, for "C[C@H]1CCOCCCn2ncc(n2)-c2n[nH]c3ccc(cc23)O1" ?
Solution: < 10 nM

Problem: Further, for "C[C@@H]1CCNC(=O)COc2cc(cc(N3CCOCC3)c2)-c2n[nH]c3ccc(cc23)O1" ?
Solution: < 10 nM

Problem: Further, for "O=C1CCc2cccc(c2)-c2n[nH]c3ccc(cc23)OCCCN1" ?
Solution: < 10 nM

Problem: Further, for "O=C1COc2cc(cc(N3CCN(C4CC4)CC3)c2)-c2n[nH]c3ccc(cc23)OCCCN1" ?
Solution: < 10 nM

Problem: Further, for "C[C@@H]1CCOCCOc2nccc(n2)-c2n[nH]c3ccc(cc23)O1" ?
Solution: < 10 nM

Problem: Further, for C[C@H]1CCNC[C@H](C)Oc2cncc(c2)-c2n[nH]c3ccc(cc23)O1 (single isomer, unassigned) ?
Solution: < 100 nM

Problem: Further, for "C[C@@H]1CCOCCOCC2=NC=C(S2)c2n[nH]c3ccc(cc23)O1" ?
Solution: < 10 nM

Problem: Further, for "C[C@H]1COc2ccc3[nH]nc(c3c2)-c2cnn(c2)CCOCCO1" ?
Solution: < 10 nM

Problem: Further, for "O=C1COc2cc(Br)cc(c2)-c2n[nH]c3ccc(cc23)OCCCN1" ?
Solution: < 10 nM

Problem: Further, for "C[C@@H]1COCCOCCn2ccc(n2)-c2n[nH]c3ccc(cc23)O1" ?
Solution: < 1000 nM

Problem: Further, for "C[C@H]1COc2ccc3[nH]nc(c3c2)-c2cnn(c2)CCCOCCO1" ?
Solution: < 100 nM

Problem: Further, for "C[C@H]1COCCCOc2nc(cc(N3CCCC3)n2)-c2n[nH]c3ccc(cc23)O1" ?
Solution: < 10 nM

Problem: Further, for "C[C@H]1OCCOCCn2cc(cn2)-c2n[nH]c3ccc(cc23)O[C@@H]1C" ?
Solution: < 10 nM
